Sourced from ChEMBL document CHEMBL1134510

Tested on: Trypanosoma brucei
Experiment: Effective concentration required to block the growth of bloodstream Trypanosoma brucei
Type: functional
Details: read-out: ED50 (the source's name)
Assignment: determine reported EC50 for the given molecules.
Record the value in µM, omitting the unit from your answer.

Task: Item `O=C(N[C@@H]1[C@H](O)[C@@H](CO)O[C@H]1n1cnc2c(NCc3cc(O)cc4ccccc34)ncnc21)c1cc(Cl)cc(Cl)c1` : provide EC50
Output: 12

Task: Item `COc1cccc(C(=O)N[C@@H]2[C@H](O)[C@@H](CO)O[C@H]2n2cnc3c(NCc4cc(O)cc5ccccc45)ncnc32)c1` : provide EC50
Output: 35

Task: Item `COc1cccc(C(=O)N[C@@H]2[C@H](O)[C@@H](CO)O[C@H]2n2cnc3c(NCc4cc(OC)cc5ccccc45)ncnc32)c1` : provide EC50
Output: 31

Task: Item `COc1cc(OC)cc(C(=O)N[C@@H]2[C@H](O)[C@@H](CO)O[C@H]2n2cnc3c(NCc4cc(OC)cc5ccccc45)ncnc32)c1` : provide EC50
Output: 35

Task: Item `O=C(N[C@@H]1[C@H](O)[C@@H](CO)O[C@H]1n1cnc2c(NCc3cccc4ccccc34)ncnc21)c1cc(O)cc(O)c1` : provide EC50
Output: 50

Task: Item `O=C(N[C@@H]1[C@H](O)[C@@H](CO)O[C@H]1n1cnc2c(NCc3cc(O)cc4ccccc34)ncnc21)c1cccc(Cl)c1` : provide EC50
Output: 16

Task: Item `COc1cc(OC)cc(C(=O)N[C@@H]2[C@H](O)[C@@H](CO)O[C@H]2n2cnc3c(NCc4cc(O)cc5ccccc45)ncnc32)c1` : provide EC50
Output: 38

Task: Item `COc1cc(OC)cc(C(=O)N[C@@H]2[C@H](O)[C@@H](CO)O[C@H]2n2cnc3c(NCc4cccc5ccccc45)ncnc32)c1` : provide EC50
Output: 17

Task: Item `O=C(N[C@@H]1[C@H](O)[C@@H](CO)O[C@H]1n1cnc2c(NCc3cccc4ccccc34)ncnc21)c1cc(Cl)cc(Cl)c1` : provide EC50
Output: 5

Task: Item `COc1ccc(C(=O)N[C@@H]2[C@H](O)[C@@H](CO)O[C@H]2n2cnc3c(NCc4cccc5ccccc45)ncnc32)cc1OC` : provide EC50
Output: 36

Task: Item `COc1cccc(C(=O)N[C@@H]2[C@H](O)[C@@H](CO)O[C@H]2n2cnc3c(NCc4ccc(OC)c5ccccc45)ncnc32)c1` : provide EC50
Output: 10

Task: Item `COc1cccc(C(=O)N[C@@H]2[C@H](O)[C@@H](CO)O[C@H]2n2cnc3c(NCc4cccc5ccccc45)ncnc32)c1` : provide EC50
Output: 18

Task: Item `COc1cc(CNc2ncnc3c2ncn3[C@@H]2O[C@H](CO)[C@@H](O)[C@H]2NC(=O)c2cc(Cl)cc(Cl)c2)c2ccccc2c1` : provide EC50
Output: 16

====

Assignment: determine reported IC50 for the given molecules.
Molecular target: Glyceraldehyde-3-phosphate dehydrogenase, glycosomal (Leishmania mexicana)
Sequence (Q27890 whole entry, looked up): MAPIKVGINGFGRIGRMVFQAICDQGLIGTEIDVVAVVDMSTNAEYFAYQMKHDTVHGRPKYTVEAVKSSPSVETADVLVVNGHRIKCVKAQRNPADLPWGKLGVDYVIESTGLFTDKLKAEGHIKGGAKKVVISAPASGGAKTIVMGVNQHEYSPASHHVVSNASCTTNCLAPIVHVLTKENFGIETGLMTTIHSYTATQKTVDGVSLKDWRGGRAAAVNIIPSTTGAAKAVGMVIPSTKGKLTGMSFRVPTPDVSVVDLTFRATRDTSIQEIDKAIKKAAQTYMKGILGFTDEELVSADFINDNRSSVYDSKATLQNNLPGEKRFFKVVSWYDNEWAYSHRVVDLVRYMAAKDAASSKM
Record the value in µM, omitting the unit from your answer.

Task: Provide IC50, recorded with Glyceraldehyde-3-phosphate dehydrogenase, glycosomal (Leishmania mexicana), of `COc1cc(C(=O)N[C@@H]2[C@H](O)[C@@H](CO)O[C@H]2n2cnc3c(NCc4cccc5ccccc45)ncnc32)ccc1O`
Output: 10

Task: Provide IC50, recorded with Glyceraldehyde-3-phosphate dehydrogenase, glycosomal (Leishmania mexicana), of `O=C(N[C@@H]1[C@H](O)[C@@H](CO)O[C@H]1n1cnc2c(NCc3cccc4ccccc34)ncnc21)c1cc(Cl)cc(Cl)c1`
Output: 12

Task: Provide IC50, recorded with Glyceraldehyde-3-phosphate dehydrogenase, glycosomal (Leishmania mexicana), of COc1cc(OC)cc(C(=O)N[C@@H]2C(Cn3cnc4c(NCc5cccc(C)c5)ncnc43)OC(CO)[C@@H]2O)c1 (some centres undefined)
Output: 25

Task: Provide IC50, recorded with Glyceraldehyde-3-phosphate dehydrogenase, glycosomal (Leishmania mexicana), of `COc1ccc(C(=O)N[C@@H]2[C@H](O)[C@@H](CO)O[C@H]2n2cnc3c(NCc4cccc5ccccc45)ncnc32)cc1OC`
Output: 4
